procedure_text: human hepatoma cell viability loss – ATP luminescence, cytotoxicity control for P. falciparum antimalarial project, primary screen (AID 2303)
recorded_conditions: HepG2 viability, 24-48 h, at 10 µM
The source made the active and inactive calls.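 The calls were made as follows: active = inhibition above 50%; inactive = the rest.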
Would you mind answering with one of these outcomes? active, inactive

Would you please look over these solved cases?
[
  {
    "compound": "NCCNc1ccnc2cc(Cl)ccc12",
    "group": "inactive"
  },
  {
    "compound": "CC(C)Cn1cc(C2CCN(CCN3CCC(CNC(=O)c4ccc(-c5ccc(C(F)(F)F)cc5)cc4)CC3)CC2)c2ccccc21",
    "group": "active"
  },
  {
    "compound": "Cc1cc(NCCC(=O)Nc2ccccc2)nc(NCCc2cccs2)n1",
    "group": "inactive"
  },
  {
    "compound": "CC(=O)Nc1ccc([N+](=O)[O-])c2c(Br)cccc12",
    "group": "inactive"
  },
  {
    "compound": "Cc1cccc2[nH]c(-c3ccc(-c4cccc(CNCCN(C)C)c4)cc3)nc12",
    "group": "inactive"
  }
]

Req: So what was the verdict on Cc1cc(C(=O)Nc2ccc3c(c2)CCN3C2CCN(Cc3cccc(F)c3F)C2)no1 (stereo not given) in this test?
Resp: inactive

Req: Entry `COc1ccc(-c2nnc(Sc3ccc(C#N)c([N+](=O)[O-])c3)n2CC(C)C)cc1` please
Resp: inactive

Req: Entry `COc1ccc2nccc([C@@H](O)CNCCCN(C)CCOc3cc(F)cc(F)c3)c2c1` please
Resp: inactive

Req: Entry `COc1ccc(-c2ccc(CNC3Cc4ccccc4C3)cc2)cc1S(=O)(=O)NCCN1CCCC1` please
Resp: inactive

Req: Entry `Cc1ccc(S(=O)(=O)N(CCCN2CCN(C)CC2)Cc2csc(-c3ccc(CNCc4ccccc4)cc3)n2)cc1` please
Resp: inactive

Req: Entry Cc1ncc([N+](=O)[O-])n1CCOC(=O)NC(Nc1ccc(Br)cc1)C(Cl)(Cl)Cl (stereo not given) please
Resp: inactive

Req: Entry `CC(=O)Nc1ccc(C(=O)Nc2cccc(-c3csc(-c4nc5ccccc5[nH]4)c3)c2)cn1` please
Resp: inactive

Req: Entry `Cc1cc(=O)c2cc(Oc3cccc(OC(F)(F)F)c3)ccc2[nH]1` please
Resp: inactive
